Collected Emax at 10 µM values appear next to each entry.
Molecular target: human sGC (Homo sapiens, UniProt Q02153)
Construct: expressed in transfected cells; host or cells: CHO-K1 (Chinese hamster ovary) cells
Sequence (Q02153 whole entry): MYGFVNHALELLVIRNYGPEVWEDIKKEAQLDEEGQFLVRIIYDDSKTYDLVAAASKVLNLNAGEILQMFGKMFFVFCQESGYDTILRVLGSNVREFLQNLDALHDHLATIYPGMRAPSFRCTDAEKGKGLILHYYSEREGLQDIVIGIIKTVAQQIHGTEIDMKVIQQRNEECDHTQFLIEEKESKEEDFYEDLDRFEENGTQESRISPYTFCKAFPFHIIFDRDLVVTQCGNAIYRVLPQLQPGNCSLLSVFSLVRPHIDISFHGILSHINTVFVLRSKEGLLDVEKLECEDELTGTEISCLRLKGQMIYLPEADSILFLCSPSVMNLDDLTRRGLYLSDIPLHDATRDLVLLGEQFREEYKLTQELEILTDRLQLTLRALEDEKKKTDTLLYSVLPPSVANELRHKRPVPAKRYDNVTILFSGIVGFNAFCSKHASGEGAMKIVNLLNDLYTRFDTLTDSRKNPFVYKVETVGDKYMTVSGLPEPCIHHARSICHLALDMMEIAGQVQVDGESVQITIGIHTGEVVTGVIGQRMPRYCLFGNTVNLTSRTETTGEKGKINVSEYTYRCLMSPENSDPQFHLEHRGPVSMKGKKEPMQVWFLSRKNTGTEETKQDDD
Sequence (Q02108 whole entry partner): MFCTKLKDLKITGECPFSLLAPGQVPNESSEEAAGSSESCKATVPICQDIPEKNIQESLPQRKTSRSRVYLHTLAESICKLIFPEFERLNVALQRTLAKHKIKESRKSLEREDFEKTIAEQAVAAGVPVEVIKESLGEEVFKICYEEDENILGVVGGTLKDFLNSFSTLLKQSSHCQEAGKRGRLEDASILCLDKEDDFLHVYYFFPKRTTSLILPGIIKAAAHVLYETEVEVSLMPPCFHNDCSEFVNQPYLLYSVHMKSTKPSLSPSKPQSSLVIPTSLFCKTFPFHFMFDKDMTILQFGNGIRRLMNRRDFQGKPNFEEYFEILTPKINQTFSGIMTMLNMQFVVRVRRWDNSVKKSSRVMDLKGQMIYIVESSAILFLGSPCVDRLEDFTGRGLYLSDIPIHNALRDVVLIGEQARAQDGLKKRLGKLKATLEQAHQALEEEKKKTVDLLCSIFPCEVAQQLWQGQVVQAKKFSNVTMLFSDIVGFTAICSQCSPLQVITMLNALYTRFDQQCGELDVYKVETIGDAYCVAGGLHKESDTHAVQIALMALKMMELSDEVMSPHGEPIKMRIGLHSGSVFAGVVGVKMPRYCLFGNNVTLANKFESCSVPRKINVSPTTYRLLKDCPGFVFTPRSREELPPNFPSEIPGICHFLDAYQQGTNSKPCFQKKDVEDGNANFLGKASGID
Assay: Maximum effect of sGC activation (intracellular Ca2+, Fura2-AM) in CHO-K1 cells stably expressing human sGC and mouse CNGA2
Type: cell-based
Conditions: increase rate of sGC activity vs DMSO control, test compound 10 μmol/L, 10 μmol/L ODQ present, read-out: Emax (%) ODQ+ (Heme-independent)
Field: numeric (%). Do not append units.

As a guide, the following entries are already answered.
molecule | measured value
O=C(O)CCCCN(Cc1ccc(C(=O)O)cc1)C[C@H](OCc1ccc(CCc2ccccc2)cc1)c1cccc(Cl)c1 | 110
CC(C)(C)c1cccc(CO[C@@H](CN(CCCCC(=O)O)Cc2ccc(C(=O)O)cc2)c2cccc(Cl)c2)c1 | 125
O=C(O)CCCCN(Cc1ccc(C(=O)O)cc1)CC(OCc1ccc(CCc2ccccc2)cc1)c1ccccc1 (stereo not drawn) | 102
CC(C)(C)c1cccc(COC(CN(CCCCC(=O)O)Cc2ccc(C(=O)O)cc2)c2ccccc2)c1 (stereo not drawn) | 141
O=C(O)CCCCN(Cc1ccc(C(=O)O)cc1)CC(OCc1ccc(CCc2ccccc2)cc1)c1ccc(Cl)s1 (stereo not drawn) | 118

Exercise: # lookup: Emax at 10 µM of O=C(O)CCCCN(Cc1ccc(C(=O)O)cc1)C[C@H](OCc1ccc(CCC2CCCC2)cc1)c1ccccc1
Solution: 142
